test system: MDA-MB-231; test: NCI tumour cell line growth inhibition, 48 h
Calls of active or inactive are those of the source. Rule as the data show it: active = GI50 up to about 1.1 µM and inactive = higher. Residues, ends and D or L forms follow the SMILES beside them. *: point of attachment. OBn = c1ccc(CO*)cc1
Classes used: active, inactive

{"molecule": "COc1ccc(CC2Cc3ccccc3CCN2)cc1OC (stereo unspecified)", "qualitative.label": "inactive"}
{"molecule": "COc1ccc(C23OCC(Cc4cc(OC)c(OC)cc42)C3COC(C)=O)cc1OC (stereo unspecified)", "qualitative.label": "inactive"}
{"molecule": "O=C(CC(c1ccccc1)c1c(O)c2ccccc2oc1=O)c1ccccc1 (stereo unspecified)", "qualitative.label": "inactive"}
{"molecule": "O=C1/C(=N/c2ccc(Nc3ccccc3)cc2)Oc2ccccc21", "qualitative.label": "inactive"}
{"molecule": "O=C(O)c1ccccc1C(=O)OCC1CCCN2CCCCC12 (stereo unspecified)", "qualitative.label": "inactive"}
{"molecule": "Clc1ccc(/C=N/C23CC4CC(CC(C4)C2)C3)cc1Cl", "qualitative.label": "inactive"}
{"molecule": "CC1=NOC(=O)/C1=C/c1ccc2c(c1)OCO2", "qualitative.label": "inactive"}
{"molecule": "COC(=O)c1c(O)ccc2c1c1c(n2Cc2ccccc2Cl)C(=O)c2ccccc2C1=O", "qualitative.label": "inactive"}
{"molecule": "CC(C)(C)OC(=O)N1CCCC1C(=O)NC(c1ccccc1)c1ccccc1 (stereo unspecified)", "qualitative.label": "inactive"}
{"molecule": "CC(=O)Oc1ccccc1/C=C/C(=O)/C=C/c1ccccc1OC(C)=O", "qualitative.label": "inactive"}
{"molecule": "CSc1nc(N)c(NC2OC(CO)C(O)C2O)c(=O)[nH]1 (stereo unspecified)", "qualitative.label": "inactive"}
{"molecule": "C1COC(NC(C2CC2)C2CC2)=N1", "qualitative.label": "inactive"}
{"molecule": "CCCCCCNC(=S)N/N=C(\\C)c1ccccn1", "qualitative.label": "active"}
{"molecule": "NC(CCC(=O)OCc1ccccc1)C(=O)NC(CCC(=O)OCc1ccccc1)C(=O)O (stereo unspecified) (H-Glu(OBn)-Glu(OBn)-OH; configuration not given here)", "qualitative.label": "inactive"}
{"molecule": "CCCCOC(=O)C(=O)C(CC(C(=O)Cc1ccccc1)c1ccccc1)C(=O)C=C(C)C (stereo unspecified)", "qualitative.label": "inactive"}
{"molecule": "C/C=C/OC1C(C2COC(C)(C)O2)OC2OC(C)(C)OC21 (stereo unspecified)", "qualitative.label": "inactive"}
{"molecule": "CC1CC(C)C(O)C(C2CC(CC(=O)NC3CCCCC3)CC(=O)O2)C1 (stereo unspecified)", "qualitative.label": "inactive"}
{"molecule": "CCOC1=C/C(=N\\Nc2ccc([N+](=O)[O-])cc2)CCC1", "qualitative.label": "inactive"}
{"molecule": "COc1ccc(NC(=O)C(=O)C(CC2C(=O)NC(=S)NC2=O)C(=O)c2ccc3ccccc3c2)c([N+](=O)[O-])c1 (stereo unspecified)", "qualitative.label": "inactive"}
{"molecule": "COC(=O)C1(Cc2ccccc2)Cc2ccc3c(c2C1=O)CCC3 (stereo unspecified)", "qualitative.label": "inactive"}
{"molecule": "COc1ccc(C(=O)Oc2c(C#N)sc3c2c(=O)n(-c2ccccc2)c(=S)n3-c2ccccc2)cc1", "qualitative.label": "inactive"}
